Catalogue of log10 of EC50 readings, one per entry.
Target: human amylin receptor (hAmyR3) (Homo sapiens, UniProt O60896+P30988)
Construct: host or cells: BHK cells (Hollex-1 line: human calcitonin receptor (a) + CRE-Luc), further transfected with human RAMP3
Sequence (P30988 25-474): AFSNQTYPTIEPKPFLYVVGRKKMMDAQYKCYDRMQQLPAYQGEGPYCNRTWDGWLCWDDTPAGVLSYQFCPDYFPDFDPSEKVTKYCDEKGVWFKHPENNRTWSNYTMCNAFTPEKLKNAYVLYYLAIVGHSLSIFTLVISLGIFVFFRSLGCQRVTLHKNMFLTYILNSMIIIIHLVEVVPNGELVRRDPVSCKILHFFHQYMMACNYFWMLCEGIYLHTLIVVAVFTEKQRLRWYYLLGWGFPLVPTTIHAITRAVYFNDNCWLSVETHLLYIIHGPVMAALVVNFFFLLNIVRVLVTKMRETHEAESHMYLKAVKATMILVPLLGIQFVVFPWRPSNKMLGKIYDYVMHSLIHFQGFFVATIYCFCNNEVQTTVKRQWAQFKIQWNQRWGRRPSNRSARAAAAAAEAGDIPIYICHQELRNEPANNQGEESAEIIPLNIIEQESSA
Sequence (O60896 24-148): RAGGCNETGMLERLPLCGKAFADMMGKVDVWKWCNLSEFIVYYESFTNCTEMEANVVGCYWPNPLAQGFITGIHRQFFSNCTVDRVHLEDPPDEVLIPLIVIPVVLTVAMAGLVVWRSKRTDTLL
Test: Human amylin receptor in vitro potency assay (CRE-luciferase reporter, BHK cells);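 also: BHK cells expressing human calcitonin receptor plus RAMP3 (amylin-3 receptor) with a CRE-luciferase reporter, agonist activity read as luminescence from cAMP-driven transcription, 7-point serial dilutions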
Assay type: cell-based
Conditions: Table 4a; BHK hAmyR3/CRE-Luc cells, 3 hours; read-out: Human AmyR3 potency [EC50 (pM)]
Starred links: 1 amine or outer side, 2 acyl side, 3 side chain; linkers in the order of their positions; H or OH if unused. Non-standard residues stand in square brackets, D forms with d. Groups on a side chain read outwards from the residue. *: point of attachment. C20 diacid = O=C(O)CCCCCCCCCCCCCCCCCCC(=O)*; C18 diacid = O=C(O)CCCCCCCCCCCCCCCCC(=O)*; γGlu = O=C(O)[C@H](CCC(=O)[*:2])N[*:1]; C14 diacid = O=C(O)CCCCCCCCCCCCC(=O)*; εLys = N[C@@H](CCCCN[*:1])C(=O)[*:2]; Trx = NC[C@H]1CC[C@H](C(=O)O)CC1; AEEA = NCCOCCOCC(=O)O; Aib = CC(C)(N)C(=O)O; Ahx = NCCCCCC(=O)O
Would you kindly interpret these values as log10 of EC50 expressed in pM?

Completed entries (count: 3):
H-H[Aib]EGTFTSDVSK([AEEA-AEEA-γGlu-C14 diacid])YLEEQAVREFIAK([AEEA-AEEA-γGlu-C14 diacid])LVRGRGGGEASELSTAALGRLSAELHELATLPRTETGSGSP-NH2 [Compound 0484] = 1.51
H-H[Aib]EGTFTSDVSSYLEGQAAK([εLys-AEEA-AEEA-γGlu-C18 diacid])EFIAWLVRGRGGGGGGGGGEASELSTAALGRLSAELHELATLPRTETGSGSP-NH2 [Compound 0159] = 1.29
H-H[Aib]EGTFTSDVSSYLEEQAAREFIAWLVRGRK([Ahx-Ahx-γGlu-C18 diacid])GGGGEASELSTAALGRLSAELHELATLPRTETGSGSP-NH2 [Compound 0658] = 1.04

Note: attention shifts to another entry.
So for H-H[Aib]EGTFTSDVSSYLEEQAAK([εLys-AEEA-AEEA-γGlu-Trx-C20 diacid])EFIEWLVRGRGEASELSTAALGRLSAELHELATLPRTETGSGSP-NH2 [Compound 0436] , the logged log10 of EC50 turned out to be 1.09
